# maps each entry to its IC50
System: Muscarinic acetylcholine receptor
Experiment Summary: In vitro binding affinity to the Muscarinic acetylcholine receptor by displacing [3H]OXO-M from the rat brain tissues
Record the value in nM, omitting the unit from your answer.

Here's what some known entries look like.
C#CCOc1noc2c1CNCCC2 = 0.75
COc1noc2c1CNCCC2 = 10
CC(C)Oc1noc2c1CNCCC2 = 11

As a next step, examine the compound that follows.
[Q] Tell me the measured IC50 of CCOc1noc2c1CNCCC2 , please.
[A] 3.4

----------
System: Muscarinic acetylcholine receptor
Experiment Summary: In vitro binding affinity to the Muscarinic acetylcholine receptor by displacing [3H]PZ from the rat brain tissues
Threshold 0.09 µM: IC50 strictly smaller gives Condition met, otherwise Condition not met.

[Q] Identify whether the molecule CCOc1noc2c1CNCCC2 records IC50 below 0.09 µM.
[A] Condition met

[Q] Cool, now CC(C)Oc1noc2c1CNCCC2
[A] Condition met

----------
System: Muscarinic acetylcholine receptor
Experiment Summary: In vitro binding affinity to the Muscarinic acetylcholine receptor by displacing [3H]PZ from the rat brain tissues
Measured Endpoint: IC50 (nM)
Record the value in nM, omitting the unit from your answer.

COc1noc2c1CNCCC2 = 390
C#CCOc1noc2c1CNCCC2 = 23

As a next step, examine the compound that follows.
[Q] Tell me the measured IC50 of O=C1CCCN1CC#CCN1CCCC1 [OXOTREMORINE] , please.
[A] 93

Entry source: ChEMBL document CHEMBL1128399
